# Test system: crabgrass (Digitaria sanguinalis L.)
# method_description: Test Example 1: foliar treatment, upland pot test, crabgrass
# Type: in vivo
# condition_details: Digitaria sanguinalis, 31 g/ha active ingredient, observed 17th to 25th day after application, read-out: Growth inhibition rate (%) Crabgrass
Entries annotated with measured inhibition at 31 g/ha

Reference set, count: 10
CCn1ncc(C(=O)c2ccc(S(C)(=O)=O)c(C(=O)OC)c2C)c1O :: 90%
Cc1c(C(=O)c2cnn(C)c2O)ccc(S(C)(=O)=O)c1CC1OCCO1 :: 90%
COc1c(S(C)(=O)=O)ccc(C(=O)c2cnn(C)c2O)c1C :: 70%
COC(=O)c1c(S(C)(=O)=O)ccc(C(=O)c2cnn(C)c2O)c1C :: 80%
Cc1c(C(=O)c2cnn(C)c2O)ccc(S(C)(=O)=O)c1C#N :: 60%
CCOc1c(S(C)(=O)=O)ccc(C(=O)c2cnn(C)c2O)c1C :: 95%
COC(COc1c(S(C)(=O)=O)ccc(C(=O)c2cnn(C)c2O)c1C)OC :: 90%
CCOC(=O)c1c(S(C)(=O)=O)ccc(C(=O)c2cnn(CC)c2O)c1Cl :: 80%
COCCOc1c(S(C)(=O)=O)ccc(C(=O)c2cnn(C)c2O)c1C :: 100%
Cc1c(C(=O)c2cnn(C)c2O)ccc(S(C)(=O)=O)c1OC(F)F :: 30%

With those in mind, consider the next compound.
-- ask Answer with the recorded inhibition at 31 g/ha of Cn1ncc(C(=O)c2ccc(S(C)(=O)=O)c(Cl)c2Cl)c1O only.
-- reply 0%
